// data source = patent US20260232670A1

test-system: TYRO3 (Homo sapiens, UniProt Q06418)
Sequence (Q06418 41-890): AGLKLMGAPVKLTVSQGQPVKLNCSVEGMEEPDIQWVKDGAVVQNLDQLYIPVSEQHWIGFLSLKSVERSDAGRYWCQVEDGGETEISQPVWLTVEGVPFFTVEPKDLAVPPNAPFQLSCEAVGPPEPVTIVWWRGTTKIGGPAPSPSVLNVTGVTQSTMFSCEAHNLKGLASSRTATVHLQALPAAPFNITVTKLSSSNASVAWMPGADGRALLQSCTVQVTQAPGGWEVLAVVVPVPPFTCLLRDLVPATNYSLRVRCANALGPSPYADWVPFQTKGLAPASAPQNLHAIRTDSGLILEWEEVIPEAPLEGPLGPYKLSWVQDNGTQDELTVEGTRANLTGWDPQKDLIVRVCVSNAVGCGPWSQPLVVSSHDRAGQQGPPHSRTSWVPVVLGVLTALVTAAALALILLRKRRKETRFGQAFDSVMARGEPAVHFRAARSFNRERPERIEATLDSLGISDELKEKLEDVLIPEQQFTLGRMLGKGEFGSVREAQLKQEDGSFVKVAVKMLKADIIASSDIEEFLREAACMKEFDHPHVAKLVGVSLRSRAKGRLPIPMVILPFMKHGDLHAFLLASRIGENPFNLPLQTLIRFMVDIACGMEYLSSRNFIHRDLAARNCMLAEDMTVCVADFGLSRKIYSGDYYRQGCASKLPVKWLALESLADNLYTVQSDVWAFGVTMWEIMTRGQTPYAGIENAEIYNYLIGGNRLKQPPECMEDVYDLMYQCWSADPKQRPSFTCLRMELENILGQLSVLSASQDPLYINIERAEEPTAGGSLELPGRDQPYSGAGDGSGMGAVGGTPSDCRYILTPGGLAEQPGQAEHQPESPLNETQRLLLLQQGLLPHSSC
procedure-summary: Microfluidic capillary electrophoresis (MCE) kinase activity assay, Tyro3
Format: biochemical
recorded-conditions: Table 7
pIC50: −log10 of the molar value.
Documented pIC50 across a set of compounds

- compound: "CN1CCC(Oc2ccc(-c3cn([C@H]4CC[C@H](O)CC4)c4nc(Nc5cc(C(F)(F)F)cc(C(F)(F)F)c5)ncc34)cc2)CC1 [Compound 150]"
  pIC50: "7.00 to 8.00"

Now for a further compound.
Exam item: Given CN1CCC(Oc2ccc(-c3cn([C@H]4CC[C@H](O)CC4)c4nc(Nc5cc(F)cc(Cl)c5)ncc34)cc2)CC1 [Compound 60] , respond with its pIC50.
Marked response: > 8.00
